- Test system: M14
- Assay Details: NCI tumour cell line growth inhibition, 48 h
Calls of active or inactive are those of the source. Rule as the data show it: active = GI50 up to about 1.1 µM and inactive = higher.
Recorded Endpoint: GI50

Would you please look over these solved cases?
Param item = COc1ccc(C2C3=C(Nc4ncnn42)c2ccccc2OC3c2ccccc2)cc1 (stereo not given) ; retrieve measured GI50.
61.8 µM (inactive)

Param item = c1ccc(C2=NOC3C4CCC(C4)C23)cc1 (stereo not given) ; retrieve measured GI50.
> 100 µM (inactive)

Param item = NC(=O)NC1NC(=O)NC1=O (stereo not given) ; retrieve measured GI50.
> 100 µM (inactive)

Param item = C=C1C(=O)OC2C3C(=C)[C@@H](OC(C)=O)CC3C(C)=CC(OC(=O)C(C)(O)C(C)OC(C)=O)[C@@H]12 (stereo not given in full) ; retrieve measured GI50.
7.6 µM (inactive)

Param item = NS(=O)(=O)c1nnc(NS(=O)(=O)c2ccc(Cl)cc2)s1 ; retrieve measured GI50.
> 100 µM (inactive)

Param item = O=C(O)c1ccccc1/C=N\N=C1NCCN1 ; retrieve measured GI50.
> 100 µM (inactive)

Continuing:
Param item = CC12CCC(CC1(Cl)Cl)C2 (stereo not given) ; retrieve measured GI50.
> 100 µM (inactive)

Param item = O=c1cc(-c2ccccc2)oc2cc(OCCCCCCCCCCOc3ccc4c(=O)cc(-c5ccccc5)oc4c3)ccc12 ; retrieve measured GI50.
> 100 µM (inactive)

Param item = C=Cc1c(C)c2cc3nc(c4c5[nH]c(cc6nc(cc1[nH]2)C(C)=C6CC)c(C)c5C(=O)C4C(=O)OC)C(CCC(=O)OC)C3C (stereo not given) ; retrieve measured GI50.
> 100 µM (inactive)

Param item = COc1ccc(/C=N/N2C(=O)c3c(N)c(C#N)c(-c4ccccc4)c(-c4ccccc4)c3C2=O)cc1 ; retrieve measured GI50.
> 100 µM (inactive)

----------
// reported GI50 for each item listed
- Test system: HL-60
- Assay Details: NCI tumour cell line growth inhibition, 48 h
Activity calls are given as the source filed them. Cut-off read from the data, not from the text of the source: active = GI50 up to about 1.1 µM and inactive = higher.

Would you please look over these solved cases?
Param item = CCO/C([O-])=C(/C=O)[n+]1c(C)n(C)c2ccccc21 ; retrieve measured GI50.
> 100 µM (inactive)

Param item = O=c1c2c(nc3[nH]ccn13)CCCC2 ; retrieve measured GI50.
> 10 µM (inactive)

Param item = C[C@H](NC1=CC(=O)C(N[C@@H](C)[C@H](O)c2ccccc2)=CC1=O)[C@H](O)c1ccccc1 ; retrieve measured GI50.
> 100 µM (inactive)

Now for the molecule whose GI50 we want.
Param item = C=C(C)[C@@H](O)[C@H](O)C[C@H](C)C1CC[C@]2(C)C1=CC[C@@H]1[C@@]3(C)CC[C@@H](OC(C)=O)C(C)(C)[C@@H]3C[C@@H](OC3OC(COC(C)=O)C(O)C(O)C3O)[C@]12C (some centres undefined) ; retrieve measured GI50.
2.05 µM (inactive)

----------
- Tested on: ACHN
- Assay Details: NCI tumour cell line growth inhibition, 48 h
Active and inactive are the calls of the source. No stated cut-off is given here; in the data, active = GI50 up to about 1.1 µM and inactive = higher.
Lab note: assign the record to one of 1 (active), 0 (inactive)

Which outcome was entered for the molecule COC1OC2COC1(OCc1ccccc1)C1OC(C)(C)OC21 (stereo not given) in this test?
0

Which outcome was entered for the molecule CCOC(=O)NC(=O)c1cn(CCCCCCCCCCC(=O)N2CCN(CCn3cc(C(=O)NC(=O)OCC)c(=O)[nH]c3=O)CC2)c(=O)[nH]c1=O in this test?
0

Which outcome was entered for the molecule O=c1c2cc(S(=O)(=O)O)ccc2nc(COc2ccc(Oc3ccc(Cl)cc3Cl)cc2)n1C(=S)Nc1ccc(Cl)cc1 in this test?
0

Which outcome was entered for the molecule Cc1cc2c(cc1Cl)SC(NNC(=O)c1ccncc1)=NS2(=O)=O in this test?
0

Which outcome was entered for the molecule C[C@@H](CC(O)C(O)C(C)(C)O)C1CCC23CC12CCC1[C@@]2(C)CCC(=O)C(C)(C)C2CC(OC2OC(CO)C(O)C(O)C2O)[C@]13C (stereo not given in full) in this test?
0

Which outcome was entered for the molecule O=C1/C(=c2\s/c(=C\c3ccccc3)c(=O)n2-c2ccccc2)SC(=S)N1c1ccccc1 in this test?
0

Which outcome was entered for the molecule C/C(=C1/CCC/C(=C(/C)c2ccccc2)C1=O)c1ccccc1 in this test?
0

----------
// reported GI50 for each item listed
- System: NCI-H460
- Assay Details: NCI tumour cell line growth inhibition, 48 h
Active and inactive are the calls of the source. Rule as the data show it: active = GI50 up to about 1.1 µM and inactive = higher.

Would you please look over these solved cases?
Param item = CCOC(=O)CN1C(=O)c2cccc3cc([N+](=O)[O-])cc(c23)C1=O ; retrieve measured GI50.
4.89 µM (inactive)

Param item = CCCCCCNc1n[nH]c(=O)c2c1nnn2Cc1ccccc1 ; retrieve measured GI50.
> 100 µM (inactive)

Param item = O=C(O)CSSCC(=O)O ; retrieve measured GI50.
> 100 µM (inactive)

Param item = CC(=O)SC(C[N+](=O)[O-])c1ccccc1 (stereo unspecified) ; retrieve measured GI50.
8.67 µM (inactive)

Param item = CC(C)(C)C(=O)C(C(=O)C(C)(C)C)C(=O)C(C)(C)C ; retrieve measured GI50.
> 100 µM (inactive)

Now for the compound whose GI50 we want.
Param item = NC(=O)CN1C=CCC(C(N)=O)=C1 [CARICOTAMIDE] ; retrieve measured GI50.
> 100 µM (inactive)

----------
- Test system: OVCAR-4
- Assay Details: NCI tumour cell line growth inhibition, 48 h
Activity calls are given as the source filed them. Rule as the data show it: active = GI50 up to about 1.1 µM and inactive = higher.
// reported GI50 for each item listed

Would you please look over these solved cases?
Param item = COc1cc2cnc3c4ccccc4ccc3c2cc1OC ; retrieve measured GI50.
> 100 µM (inactive)

Param item = CCC/C=C1\CCC(CN(C)C)C1=O (stereo unspecified) ; retrieve measured GI50.
18.8 µM (inactive)

Continuing:
Param item = Nc1ncc(Cl)c(NCC2(CO)CC(CCc3ccccc3)C2)n1 (stereo unspecified) ; retrieve measured GI50.
> 100 µM (inactive)

Param item = CN(C)C(=O)Nc1cc2c3c(c1)CCCN3CCC2 ; retrieve measured GI50.
> 10 µM (inactive)

Param item = O=c1c2ccccc2n2c(-c3ccccc3O)nnc2n1-c1ccccc1 ; retrieve measured GI50.
> 100 µM (inactive)

Param item = CC(C)(C)C(=O)C(C(=O)C(C)(C)C)C(=O)C(C)(C)C ; retrieve measured GI50.
> 100 µM (inactive)

----------
- System: MCF7
- Assay Details: NCI tumour cell line growth inhibition, 48 h
The source made the active and inactive calls. Rule as the data show it: active = GI50 up to about 1.1 µM and inactive = higher.
Lab note: assign the record to one of t for active, f for inactive

These recorded examples may help you get a feel for the data.
Which outcome was entered for the compound Cc1nc2cc(C(F)(F)F)ccc2[nH]c1=O in this test?
f

Which outcome was entered for the compound O=C(CCCNc1nc(-c2ccccc2)cs1)c1cccs1 in this test?
f

Which outcome was entered for the compound Cc1ccc(C(=O)C(Cl)C(Cl)c2ccc(C)cc2)cc1 (configuration not stated) in this test?
f

Which outcome was entered for the compound O=C(O)CSSCC(=O)O in this test?
f

Which outcome was entered for the compound CCN(CC)CCCNc1nc2ccccc2[n+]([O-])n1 in this test?
f

Which outcome was entered for the compound COC1=C2CC(C)CC(OC)C(OC(=O)CN)[C@H](C)/C=C(\C)C(OC(N)=O)C(OC)/C=C\C=C(/C)C(=O)NC(=CC1=O)C2=O (some centres not stated) in this test?
t

Which outcome was entered for the compound CCOC(=O)CC(=O)C(=O)NN=C1NCCN1 in this test?
f

Which outcome was entered for the compound CCN(CC)c1ccc(/C=C/C2=NN(c3cccc(S(=O)(=O)O)c3)C3(C2)SCC(=O)N3c2nc3ccccc3s2)cc1 (configuration not stated) in this test?
f

Which outcome was entered for the compound O=c1c2c(nc3[nH]ccn13)CCCC2 in this test?
f

Which outcome was entered for the compound CC(=O)C(C(c1ccccc1)N1CCOCC1)N1CCOCC1 (configuration not stated) in this test?
f

Continuing:
Which outcome was entered for the compound C/C(=C\COc1cc(O)c2c(c1)C(=O)c1cc(C)cc(O)c1C2=O)CCC1OC1(C)C (configuration not stated) in this test?
f

Which outcome was entered for the compound CNC(=O)c1cc2nc3ccccc3c(=O)n2c2ccccc12 in this test?
f

----------
// reported GI50 for each item listed
- Test system: DU-145
- Assay Details: NCI tumour cell line growth inhibition, 48 h
The source made the active and inactive calls. Rule as the data show it: active = GI50 up to about 1.1 µM and inactive = higher.

Param item = O=P(O)(CCP(=O)(O)c1ccccc1)c1ccccc1 ; retrieve measured GI50.
> 100 µM (inactive)

Param item = c1ccc2c(c1)ccn2CCc1c[nH]c2ccccc12 ; retrieve measured GI50.
> 10 µM (inactive)

Param item = CC(=O)C(CN1CCOCC1)C(c1ccccc1)c1c(O)c2ccccc2oc1=O (stereo not given) ; retrieve measured GI50.
> 100 µM (inactive)

Param item = CN(C)CCNC(=O)c1cccc2nc3c4ccccc4c4ccccc4c3nc12 ; retrieve measured GI50.
1.79 µM (inactive)

Param item = COc1ccc(C2=NN=C3C(c4ccccc4)=Nc4ccccc4N3C2)cc1 ; retrieve measured GI50.
8.18 µM (inactive)

Param item = CCN(CC)CCCNc1ccc2nnn3c4ccc(O)cc4c(=O)c1c23 ; retrieve measured GI50.
11.9 µM (inactive)

Param item = O=C(ON=C1c2ccccc2C(Br)C(Br)c2ccccc21)c1cc([N+](=O)[O-])cc([N+](=O)[O-])c1 (stereo not given) ; retrieve measured GI50.
25.9 µM (inactive)

Param item = COc1ccc(/C=N/N2C(=O)c3c(N)c(C#N)c(-c4ccccc4)c(-c4ccccc4)c3C2=O)cc1 ; retrieve measured GI50.
> 100 µM (inactive)

Param item = O=C(O)c1cccc(S(=O)(=O)NCCO)c1 ; retrieve measured GI50.
> 100 µM (inactive)

Param item = CC(=O)/N=C1\N/C(=C\c2ccc(Cl)cc2)C(=O)N1/C=C1\C(=O)Oc2ccccc2C1=O ; retrieve measured GI50.
> 100 µM (inactive)

Continuing:
Param item = Cc1ccc(-c2cc(N)n(-c3nc4c(c(=O)n(C)c(=O)n4C)n3C)n2)cc1 ; retrieve measured GI50.
> 100 µM (inactive)

Param item = CC(=O)c1c(-c2ccco2)c(C#N)c(=S)n(C2OC(CO)C(O)C(O)C2O)c1C (stereo not given) ; retrieve measured GI50.
> 100 µM (inactive)

Param item = CC(C)=CCC/C(C)=C/CC/C(C)=C/CC/C(C)=C/CC/C(C)=C\CC/C(C)=C/CC/C(C)=C/CC/C(C)=C/Cc1cc(O)ccc1O ; retrieve measured GI50.
19.4 µM (inactive)

Param item = CCOC(=O)c1cc(C2CCN(c3ccccc3)C2=O)c(C(=O)/C=C(/C)O)[nH]1 (stereo not given) ; retrieve measured GI50.
> 100 µM (inactive)

Param item = CC1(C)C(CBr)=[N+]([O-])C(C)(C)N1O ; retrieve measured GI50.
> 10 µM (inactive)

Param item = Nc1ncc(Cl)c(NCC2(CO)CC(CCc3ccccc3)C2)n1 (stereo not given) ; retrieve measured GI50.
> 100 µM (inactive)

The origin of these recorded values is ChEMBL document CHEMBL1201862.
